Test system: JCK
Experiment: qHTS profiling for inhibitors of Plasmodium falciparum proliferation (AID 504749); note: nearly all actives have a fitted effect of over 60% in size
Conditions: P. falciparum in erythrocytes, SYBR Green DNA, 72 h; series mostly up to 28.7 µM
Records with an inconclusive call do not appear. Activity calls are given as the source filed them. Calls come from the whole dose curve; as a rule, active = well fitted inhibition curve with a large enough effect; inconclusive = small, poorly fitted or top-dose-only effect; inactive = flat fitted curve, though single readings scatter.
Output constraint: value belongs to TRUE (active), FALSE (inactive)

Test call, this molecule: CN[C@@H](C)[C@H]1CC[C@@H](N)[C@@H](O[C@@H]2[C@@H](O)[C@@H](O[C@H]3OC[C@@](C)(O)[C@@H](NC)[C@@H]3O)[C@H](N)C[C@@H]2N)O1 (tested in a mixture with another compound)
FALSE

// return assay outcome for `CCN[C@]1(c2cccs2)CCCCC1=O`
FALSE

Fill in: this test's call for ClC1=C(Cl)C2(Cl)C3C4CC(C5OC45)C3C1(Cl)C2(Cl)Cl (stereo unspecified) is ___
FALSE

Lab log entry: `CC(C)c1c(CN(C)[C@@H](C)Cc2ccccc2)n(C)n(-c2ccccc2)c1=O` — outcome as called in the assay?
FALSE

What classification did `C[C@H](N)[C@@H](O)c1ccccc1` end up with in this test?
FALSE

// outcome(item) with item = `CN(C)[C@@H]1C(=O)C(C(N)=O)=C(O)[C@]2(O)C(=O)C3=C(O)c4c(O)ccc(Cl)c4[C@](C)(O)[C@H]3C[C@@H]12`
FALSE

Assay result, entry C[C@]12CC[C@H](O)CC1=CCC1C2CC[C@]2(C)C(=O)CC[C@@H]12 (stereo partly specified) — outcome?
FALSE

Could you kindly confirm the outcome this assay logged for `C[C@@]12CC[C@H]3[C@@H](CC[C@@H]4C[C@H]5S[C@H]5C[C@]43C)[C@H]1CC[C@H]2O` ?
FALSE

# lookup: test call for `N[C@H]1C[C@H]1c1ccccc1`
FALSE

###

Assay: Primary qHTS to identify inhibitors of SARS-CoV-2 cell entry (AID 1645846); note: nearly all actives have a fitted effect of over 45% in size
Settings: SARS-CoV-2 pseudovirus cell entry assay, luminescence; at 57.1 µM (top of the series) unless noted
Records with an inconclusive call do not appear. Bridge positions count the residues as written; N and C are the ends. Square brackets hold non-standard residues; d marks the D form. Peptide text beside a SMILES is read from it. Orn = NCCC[CH](N)C(=O)O; Mpa = O=C(O)CCS
MEASUREMENT_TYPE: activity change, negative = inhibition

Nc1ncnc2c1C(=O)N(c1ccc(C3CCC(CC(=O)O)CC3)cc1)CCO2 (stereo not drawn); -0.016%
CC(C)C[C@H](NC(=O)CNC(=O)c1cc(Cl)ccc1Cl)B1OC(=O)C(CC(=O)O)(CC(=O)O)O1; -97.4%
CC(C)N=c1cc2n(-c3ccc(Cl)cc3)c3ccccc3nc-2cc1Nc1ccc(Cl)cc1; -33.7%
CS(=O)(=O)c1ccc(-c2nnc(/C=C/c3nnc(-c4ccc(C#N)cc4)o3)n2-c2ccccc2Cl)nc1; -12.6%
OC[C@@H](O)C(O)[C@H](O)CO; 2.94%

Specify measured activity change, negative = inhibition for `CC(=O)[O][Al][O]C(C)=O` .
-37.2% [at 11.3 µM]

Give the value of activity change, negative = inhibition reported for the following: `CC(C)(CNC(=O)c1cccc(-c2noc(C(F)(F)F)n2)c1)c1coc(-c2ccccc2)n1`
-6.95%

# return recorded activity change, negative = inhibition for entry `Cc1ccc(-c2ccc3ncc4c(c3n2)n(C2CCN(C(=O)[C@H](C)O)CC2)c(=O)n4C)cn1`
-95.8%

Given the molecule CCC(=O)O[C@@H]1CC(=O)O[C@H](C)C/C=C/C=C/[C@@H](O)[C@H](C)C[C@H](CC=O)[C@H](OC2O[C@H](C)[C@@H](O[C@H]3C[C@@](C)(O)[C@@H](OC(=O)CC)[C@H](C)O3)[C@H](N(C)C)[C@H]2O)[C@H]1OC (stereo partly drawn) , write its reported activity change, negative = inhibition.
-26.3%

Could you please provide reported activity change, negative = inhibition for CCOc1ccc(CC2NC(=O)CCSSCC(C(=O)N3CCCC3C(=O)NC(CCCN)C(=O)NCC(N)=O)NC(=O)C(CC(N)=O)NC(=O)C(C(C)O)NC(=O)C(C(C)CC)NC2=O)cc1 (stereo not drawn) ([Mpa]Y(Et)ITNCP[Orn]G-NH2; disulfide 1-6; configuration not given here) ? Thanks!
-38.4%

###

Test: Cytotoxicity counterscreen for inhibitors of SARS-CoV-2 cell entry (AID 1645845); note: nearly all actives have a fitted effect of over 50% in size
Conditions: cell viability (SARS-CoV-2 entry assay cells); series mostly up to 57.1 µM
Results filed as inconclusive are left out. The source made the active and inactive calls. The call rests on the fitted dose curve.
Pick one: label 1 = active, label 0 = inactive

These solved cases illustrate the format of a correct answer.
CC(/C=C/C(=O)NO)=C\[C@@H](C)C(=O)c1ccc(N(C)C)cc1; label 1
[2H]c1nc(C)nc([2H])c1-c1cc(NC[C@@H](C)c2cccc3c(C(=O)NC)ccnc23)ncn1; label 0
C[C@@H](C1CC[C@@]2(O)C3=CC(=O)[C@@H]4C[C@@H](O)[C@@H](O)C[C@]4(C)[C@H]3CC[C@]12C)[C@H](O)CCC(C)(C)O (some centres undefined); label 0

Please examine the following record next.
Kindly provide the recorded test outcome for the following molecule: OCc1cc(C(O)CNCCCCCCOCCOCc2c(Cl)cccc2Cl)ccc1O (centres undefined)
label 0

###

Biological target: Mitogen-activated protein kinase 10 (Mus musculus) (UniProt Q61831)
Assay: JNK3 AlphaScreen Assay (AID 530);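 note: kinase came from lysate of stimulated human HepG2 cells; signal reports phosphorylation of biotinylated GST-cJun 1-79 at Ser73 with 10 µM ATP; % is set by controls: 0 for no effect and ±100 for the full control effect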
Conditions: JNK3 lysate, c-Jun phosphorylation; series mostly up to 57.1 µM
Records with an inconclusive call do not appear. The source made the active and inactive calls. Calls follow the shape of the dose curve; as a rule, active = well fitted curve in either direction with a large enough effect (not every such curve was filed as active); inconclusive = small, poorly fitted or top-dose-only effect, or another doubt; inactive = flat fitted curve, though single readings scatter.
MEASUREMENT_TYPE: activity change, negative = inhibition

Before answering, review these 6 worked examples.
c1ccc(N2CC[C@@]3(CCCNC3)C2)nc1; inactive
O=C(Nc1ccccc1)N1CC[C@@]2(CCCN(C(=O)Oc3ccccc3)C2)C1; inactive
CC(=O)O[C@H]1C[C@@H](O[C@@H]2[C@H](C)O[C@H](O[C@@H]3[C@H](C)O[C@H](O[C@@H]4CC[C@@]5(C)[C@@H](CC[C@]6(C)[C@]5(C)C[C@H](O)[C@]5(C)[C@@H](C7=CC(=O)OC7)CC[C@@]56O)C4)C[C@@H]3O)C[C@@H]2O)O[C@@H](C)[C@H]1O[C@H]1O[C@@H](CO)[C@@H](O)[C@@H](O)[C@@H]1O; inactive
C=CC(=C)C; inactive
c1cnc(N2CC3(CCNCC3)C2)nc1; inactive
Cc1ccccc1-c1cncnc1NCCc1cnc[nH]1; inactive

Field: next compound
Look up activity change, negative = inhibition of `CCN1C[C@@]2(COC)[C@H]3[C@@H](OC)[C@H]4C1[C@@]3([C@H](OC)C[C@@H]2O)[C@H]1C[C@@]2(O)[C@@H](OC(=O)c3ccccc3)[C@@H]1[C@@]4(OC(C)=O)[C@H](O)[C@@H]2OC` and report it.
inactive

###

Tested on: W2
Experiment: qHTS profiling for inhibitors of Plasmodium falciparum proliferation (AID 504749); note: nearly all actives have a fitted effect of over 60% in size
Settings: P. falciparum in erythrocytes, SYBR Green DNA, 72 h; series mostly up to 12.8 µM
Records with an inconclusive call do not appear. Calls of active or inactive are those of the source. Calls come from the whole dose curve; as a rule, active = well fitted inhibition curve with a large enough effect; inconclusive = small, poorly fitted or top-dose-only effect; inactive = flat fitted curve, though single readings scatter.
Field 'call' accepts true (1) = active, false (0) = inactive

C[C@@H]1O[C@H](O[C@@H]2C=C3CC[C@H]4[C@@H](CC[C@]5(C)[C@@H](c6ccc(=O)oc6)CC[C@]45O)[C@@]3(C)CC2)[C@@H](O)[C@H](O)[C@@H]1O; false (0)
CN(C)C(=O)Oc1cc(OC(=O)N(C)C)cc([C@@H](O)CNC(C)(C)C)c1; false (0)
CO[C@@H](COC(N)=O)C1=C(N2CC2)C(=O)C(C)=C(N2CC2)C1=O; true (1)

Recorded test outcome, item `CC[C@]1(c2cccc(O)c2)CCCCN(C)C1`
true (1)

Just curious, what result did `CC(=O)OCC(=O)[C@@H]1CC[C@H]2[C@H]3CC[C@H]4C[C@@H](O)CC[C@]4(C)[C@@H]3C(=O)C[C@@]12C` get here?
false (0)

Test call, this compound: CNc1ccc(C(=O)CC(O)CCC(C)C2OC(=O)CC(O)CC(=O)CC(O)CC(O)CC(O)CC(O)CC3(O)CC(O)C(C(=O)OC)C(CC(O[C@@H]4OC(C)C(O)C(N)C4O)/C=C/C=C/C=C/C=C/C=C/C=C/C=C/C2C)O3)cc1 (some centres not stated)
false (0)

###

Target: Rap guanine nucleotide exchange factor 4 (Homo sapiens) (UniProt Q8WZA2)
Sequence (Q8WZA2 whole entry, looked up): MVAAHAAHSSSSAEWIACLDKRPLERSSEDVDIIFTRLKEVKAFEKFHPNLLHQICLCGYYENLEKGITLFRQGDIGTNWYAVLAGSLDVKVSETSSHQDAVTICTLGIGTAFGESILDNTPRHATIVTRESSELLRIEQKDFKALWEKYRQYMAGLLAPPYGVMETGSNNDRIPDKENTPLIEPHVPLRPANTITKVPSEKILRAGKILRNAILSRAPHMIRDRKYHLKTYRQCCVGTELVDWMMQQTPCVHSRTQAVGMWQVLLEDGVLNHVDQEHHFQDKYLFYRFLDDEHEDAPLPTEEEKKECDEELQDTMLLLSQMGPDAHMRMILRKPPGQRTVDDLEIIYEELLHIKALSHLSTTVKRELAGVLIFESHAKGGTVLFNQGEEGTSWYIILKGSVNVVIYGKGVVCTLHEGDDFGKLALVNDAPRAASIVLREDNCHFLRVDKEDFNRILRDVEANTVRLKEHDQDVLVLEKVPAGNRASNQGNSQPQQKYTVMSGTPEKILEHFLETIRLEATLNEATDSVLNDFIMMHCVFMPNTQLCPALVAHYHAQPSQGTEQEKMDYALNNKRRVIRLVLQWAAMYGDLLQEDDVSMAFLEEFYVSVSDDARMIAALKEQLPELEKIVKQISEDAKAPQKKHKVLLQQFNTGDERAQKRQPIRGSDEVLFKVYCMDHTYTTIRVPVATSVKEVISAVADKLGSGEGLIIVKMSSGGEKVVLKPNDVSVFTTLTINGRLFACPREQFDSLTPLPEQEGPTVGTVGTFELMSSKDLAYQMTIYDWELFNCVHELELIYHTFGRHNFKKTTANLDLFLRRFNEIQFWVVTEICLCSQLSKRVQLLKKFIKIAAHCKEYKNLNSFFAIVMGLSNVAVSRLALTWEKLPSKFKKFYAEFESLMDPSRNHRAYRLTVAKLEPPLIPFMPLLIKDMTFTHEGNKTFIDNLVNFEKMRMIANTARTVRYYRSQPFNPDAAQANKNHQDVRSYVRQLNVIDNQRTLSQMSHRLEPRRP
Experiment: Confirmatory qHTS for antagonist of cAMP-regulated guanine nucleotide exchange factor 4 (EPAC2) (AID 1645885); note: potency is the fitted concentration of half-maximal effect; nearly all actives have a fitted effect of over 25% in size
Settings: EPAC2 Rap1B-BODIPY-GDP exchange fluorescence, biochemical; series mostly up to 114 µM
Results filed as inconclusive are left out. Activity calls are given as the source filed them. Calls come from the whole dose curve; as a rule, active = well fitted inhibition curve with a large enough effect; inconclusive = small, poorly fitted or top-dose-only effect; inactive = no such curve, though single readings can be large or run the other way.
MEASUREMENT_TYPE: Potency

See these solved cases before continuing.
CC1=C(O)C(=O)C=C2C1=CC=C1C2(C)CCC2(C)C3CC(C)(C(=O)O)CCC3(C)CCC12C (centres undefined); 0.953 µM (active)
COc1cc2c(cc1-c1cc3cc4ccoc4cc3oc1=O)OCO2; 0.987 µM (active)
Nc1ccc2nonc2c1[N+](=O)[O-]; 47.8 µM (active)
CCc1nc2ccccc2c(=O)n1-c1ccccc1OC; 33.8 µM (active)
CCOC(=O)[C@]12Cc3cc(OC)ccc3[C@H]1N(Cc1ccccc1)C(=O)c1ccccc12; 19 µM (active)
Cc1cc(/C=C2/C(=O)NC(=O)N(Cc3ccco3)C2=O)c(C)n1-c1ccccc1O; 0.19 µM (active)

Check the records and state Potency for Cc1cc(OC(C)C(=O)N[C@H](C(=O)O)c2ccccc2)c2c3c(c(=O)oc2c1)CCC3 (some centres undefined)
42.6 µM (active)

Supply reported Potency belonging to this compound: `CCCCn1c(NS(=O)(=O)c2ccc(C)cc2)c(C(=O)OCC)c2nc3ccccc3nc21`
23.9 µM (active)

Read off the recorded Potency for `O=c1cc(C(F)(F)F)c2cc3c4c(c2o1)CCCN4CCC3`
60.1 µM (active)
